Tested on: HBV DNA replication in HepG2.2.15 cells
test-description: In vitro anti-HBV activity test (quantitative assay of intracellular HBV DNA), HepG2.2.15 cells, quantitative PCR
Assay type: cell-based, hepatitis B virus (HBV)
condition-parameters: Hepatitis B virus, HBV DNA by quantitative PCR, read-out: Emax (effect value of the compound to maximally inhibit HBV DNA replication)
Description: In vitro anti-HBV activity test of the compound of the present invention (quantitative assay of intracellular HBV DNA) HepG2.2.15 cell is a stable expression cell line that has integrated HBV genome. […] HepG2.2.15 cells were cultured in DMEM/high glucose medium (10% FBS, […] G418) and passaged every three days. […] The quantitative standard curve was obtained with the standard sample provided in the kit, and the experiments were performed in parallel. […]
I'd be grateful if you could share measured Emax for these entries.
Reply numerically in %, unit not repeated.

Prompt: Which Emax is reported for this compound? C[C@H]1Cn2cnc(C(=O)N3CCCC3)c2CN1C(=O)Nc1ccc(F)c(F)c1 [Example 59, reference compound]
Response: 90

Prompt: Using the record for "C[C@@H]1CN(C(=O)Nc2ccc(F)c(C#N)c2)Cc2c(C(=O)N[C@H](C)C(F)(F)F)ncn21" , report its Emax.
Response: 100

Prompt: Which value of Emax has been reported for "C[C@H]1Cn2cnc(C(=O)NC3(C)CCC3)c2CN1C(=O)Nc1ccc(F)c(C#N)c1" in the records?
Response: 97

Prompt: I have this compound here, "C[C@H]1Cn2cnc(C(=O)N[C@H](C)C(F)(F)F)c2CN1C(=O)Nc1ccc(F)c(C#N)c1" , and I need its recorded Emax.
Response: 100

Prompt: Given the entry "C[C@H]1Cn2ncc(C(=O)N[C@H](C)C(F)(F)F)c2CN1C(=O)Nc1cc(F)nc(F)c1" , report its measured Emax.
Response: 100

Prompt: Quick check: Emax of "C[C@@H]1CN(C(=O)Nc2ccc(F)c(C#N)c2)Cc2c(C(=O)N[C@H](C)C(F)(F)F)nnn21" ?
Response: 99

Prompt: Entry under review: "C[C@H]1Cn2ncc(C(=O)NC(C)(C)C)c2CN1C(=O)Nc1ccc(F)c(F)c1" . Reported Emax?
Response: 100

###

test-description: Pharmacokinetics assay in rats after intragastrical administration (LC/MS/MS of plasma)
Format: in vivo
condition-parameters: both sexes, rat, plasma, po, SD rats, 2 mg/kg, read-out: Half-life T1/2 (converted)
Give measured half-life for each item. Keep answers brief.
Report only the number, with the unit h understood.

Prompt: What value of half-life has been recorded for this entry: C[C@@H](NC(=O)c1cnn2c1CN(C(=O)Nc1ccc(F)c(F)c1)CC2)C(F)(F)F [Example 2]
Response: 8.01

Prompt: Tell me the measured half-life of C[C@@H](NC(=O)c1ncn2c1CN(C(=O)Nc1cc(F)c(F)c(F)c1)CC2)C(F)(F)F [Example 1] , please.
Response: 11.7

Prompt: // half-life lookup, key: C[C@H]1Cn2cnc(C(=O)N[C@H](C)C(F)(F)F)c2CN1C(=O)Nc1ccc(F)c(F)c1 [Example 6]
Response: 10.8

Prompt: Quick one: half-life for C[C@H]1Cn2ncc(C(=O)N[C@H](C)C(F)(F)F)c2CN1C(=O)Nc1ccc(F)c(F)c1 [Example 7] ?
Response: 9.72

Prompt: Form field: reported half-life of C[C@@H]1CN(C(=O)Nc2ccc(F)c(F)c2)Cc2c(C(=O)N[C@H](C)C(F)(F)F)nnn21 [Example 42]
Response: 15.9

Prompt: Can you look up the measured half-life of C[C@@H]1CN(C(=O)Nc2ccc(F)c(C#N)c2)Cc2c(C(=O)N[C@H](C)C(F)(F)F)ncn21 [Example 47] for me?
Response: 13.1

Prompt: So what does the record say about half-life for C[C@H]1Cn2cnc(C(=O)N[C@H](C)C(F)(F)F)c2CN1C(=O)Nc1ccc(F)c(C#N)c1 [Example 11] ?
Response: 11.2

Prompt: Entry C[C@@H](NC(=O)c1cnn2c1CN(C(=O)Nc1cc(F)c(F)c(F)c1)CC2)C(F)(F)F [Example 4] : reported half-life = ?
Response: 8.8

Prompt: What half-life value was documented for this compound, C[C@@H]1CN(C(=O)Nc2ccc(F)c(C#N)c2)Cc2c(C(=O)N[C@H](C)C(F)(F)F)nnn21 [Example 44] ?
Response: 17
